biological target: Cytochrome P450 2C9 (Homo sapiens); assay: Cytochrome P450 Family 2 Subfamily C Member 9 (CYP2C9) small molecule antagonists: luciferase reporter qHTS assay (AID 1671198); conditions: P450-Glo CYP2C9 enzyme assay, luciferin luminescence; series mostly up to 115 µM; also: nearly all actives have a fitted effect of over 50% in size
Results filed as inconclusive are left out. The source made the active and inactive calls. Calls follow the shape of the dose curve; as a rule, active = well fitted inhibition curve with a large enough effect in the repeat runs; inconclusive = weak or mixed curves; inactive = no such curve, though single readings can be large or run the other way.
Outcomes you can answer with include only these: active, inactive

Sample answers from the record:
1. Cc1nc2ccc(CN(C)c3ccc(C(=O)N[C@@H](CCC(=O)O)C(=O)O)s3)cc2c(=O)[nH]1
inactive
2. C[N+](C)(CCOc1ccccc1)Cc1cccs1
inactive
3. CC(C)C(=O)OC(=O)C(C)C
inactive
4. CC1OC1C1CCC2(C)OC2C1 (stereo not drawn)
inactive

stdin: In this assay, the call recorded for CC(C)(C)OC(=O)c1cccc(N)c1 was what?
stdout: active

stdin: In this assay, the call recorded for COc1cc(-c2ccc(=O)[nH]n2)ccc1OC(F)F was what?
stdout: inactive

stdin: In this assay, the call recorded for CC(=O)c1ccccc1[N+](=O)[O-] was what?
stdout: inactive

---

target: Cytochrome P450 1A2 (Homo sapiens) (UniProt P05177); test: Cytochrome P450 Family 1 Subfamily A Member 2 (CYP1A2) small molecule antagonists: luciferase reporter qHTS assay (AID 1671199); settings: P450-Glo CYP1A2 enzyme, luciferin luminescence, 1 h; series mostly up to 53 µM; also: nearly all actives have a fitted effect of over 50% in size
Sequence (P05177 whole entry, looked up): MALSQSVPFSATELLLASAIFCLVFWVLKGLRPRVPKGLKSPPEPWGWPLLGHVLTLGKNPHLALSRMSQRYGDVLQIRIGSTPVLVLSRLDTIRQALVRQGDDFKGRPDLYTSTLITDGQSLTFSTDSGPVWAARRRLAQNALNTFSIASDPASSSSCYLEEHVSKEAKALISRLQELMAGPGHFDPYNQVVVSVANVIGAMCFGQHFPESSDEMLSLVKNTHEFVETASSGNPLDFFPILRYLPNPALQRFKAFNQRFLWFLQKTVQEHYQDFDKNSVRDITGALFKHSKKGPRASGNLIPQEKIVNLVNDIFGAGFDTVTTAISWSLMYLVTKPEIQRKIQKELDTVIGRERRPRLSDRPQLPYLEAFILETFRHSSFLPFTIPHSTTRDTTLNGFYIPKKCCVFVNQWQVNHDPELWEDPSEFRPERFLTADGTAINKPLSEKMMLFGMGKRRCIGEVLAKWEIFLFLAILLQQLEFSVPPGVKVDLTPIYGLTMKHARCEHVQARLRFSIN
Records with an inconclusive call do not appear. The source made the active and inactive calls. Calls come from the whole dose curve; as a rule, active = well fitted inhibition curve with a large enough effect in the repeat runs; inconclusive = weak or mixed curves; inactive = no such curve, though single readings can be large or run the other way.
Outcomes you can answer with include only these: active, inactive

Sample answers from the record:
1. COc1c(N2CCNC(C)C2)c(F)cc2c(=O)c(C(=O)O)cn(C3CC3)c12 (centres undefined)
inactive
2. CCCOC(=O)CC
active
3. OCCc1ccccn1
inactive
4. COc1ccc2cc1Oc1cc3c(cc1OC)CC[N+](C)(C)[C@H]3Cc1ccc(cc1)Oc1c(OC)c(OC)cc3c1[C@@H](C2)[N+](C)(C)CC3
inactive
5. CC1(C)OC[C@@H](COC(=O)CCc2ccc(OC[C@@H](O)CNCCNC(=O)N3CCOCC3)cc2)O1
inactive
6. c1ccc(Cc2ccccc2)cc1
active
7. CCCCCCCC1CCCC1=O (centres undefined)
inactive
8. C[N+](C)(CCOc1ccccc1)Cc1cccs1
inactive
9. CCCCCCCCN1CCCC1=O
active
10. CCN[C@H]1C[C@H](C)S(=O)(=O)c2sc(S(N)(=O)=O)cc21
inactive

stdin: In this assay, the call recorded for CCCCOC(=O)CCC(C)=O was what?
stdout: inactive

stdin: In this assay, the call recorded for Cc1ncc(COP(=O)(O)O)c(C=O)c1O was what?
stdout: active

stdin: In this assay, the call recorded for O=C(O)Cc1csc(-c2ccc(Cl)cc2)n1 was what?
stdout: inactive

stdin: In this assay, the call recorded for C=C[Si](OC(C)=O)(OC(C)=O)OC(C)=O was what?
stdout: inactive

stdin: In this assay, the call recorded for Cc1cccc(C)c1NC(=O)CC12CCCN1CCC2 was what?
stdout: inactive

stdin: In this assay, the call recorded for COc1cc(C(=O)NCc2ccc(OCCN(C)C)cc2)cc(OC)c1OC was what?
stdout: inactive

stdin: In this assay, the call recorded for O=[N+]([O-])c1cncn1CCN1CCOCC1 was what?
stdout: inactive

stdin: In this assay, the call recorded for C1CCC2(CCCCO2)OC1 was what?
stdout: inactive

stdin: In this assay, the call recorded for O=C(O)CCSCCC(=O)O was what?
stdout: inactive

stdin: In this assay, the call recorded for C=C(C)C(=O)OCC(O)CO (centres undefined) was what?
stdout: inactive

stdin: In this assay, the call recorded for CC(=O)c1cnccn1 was what?
stdout: inactive

stdin: In this assay, the call recorded for O=S(=O)(O)c1cc(O)c(O)c(S(=O)(=O)O)c1 was what?
stdout: inactive

stdin: In this assay, the call recorded for CC1(C)[C@@H]2CC[C@@]1(C)[C@H](O)C2 was what?
stdout: inactive

stdin: In this assay, the call recorded for CN(C)[C@@H]1C(=O)C(C(=O)NCN2CCCC2)=C(O)[C@@]2(O)C(=O)C3=C(O)c4c(O)cccc4[C@@](C)(O)C3C[C@@H]12 (some centres undefined) was what?
stdout: active

stdin: In this assay, the call recorded for CC(CO)(CO)[N+](=O)[O-] was what?
stdout: inactive

stdin: In this assay, the call recorded for CC(C)C(=O)OC(=O)C(C)C was what?
stdout: inactive

stdin: In this assay, the call recorded for C[C@@H]1CCC[C@H](C)N1 was what?
stdout: inactive

stdin: In this assay, the call recorded for Nc1ccn([C@@H]2O[C@H](CO)[C@@H](O)C2(F)F)c(=O)n1 was what?
stdout: inactive

stdin: In this assay, the call recorded for [K+] was what?
stdout: inactive

stdin: In this assay, the call recorded for CC(=O)N1C[C@H](O)C[C@H]1C(=O)O was what?
stdout: inactive

stdin: In this assay, the call recorded for CC1OC1C1CCC2(C)OC2C1 (centres undefined) was what?
stdout: inactive

stdin: In this assay, the call recorded for CN1CC(=O)N/C1=N/C(=O)Nc1cccc(Cl)c1 was what?
stdout: active

stdin: In this assay, the call recorded for Nc1c2c(nc3c1CCC3)CCCC2 was what?
stdout: inactive

stdin: In this assay, the call recorded for Cc1nc(C2CCCCC2)c(-c2ccc(S(N)(=O)=O)c(F)c2)o1 was what?
stdout: inactive

stdin: In this assay, the call recorded for Nc1ccn([C@@H]2O[C@H](CO)[C@@H](O)C2O)c(=O)n1 (some centres undefined) was what?
stdout: inactive

---

test: qHTS assay for identifying genotoxic compounds that show differential cytotoxicity against isogenic chicken DT40 cell lines with known DNA damage response pathways - Rev3 mutant cell line (AID 743014); details: chicken DT40 Rev3-/- viability, CellTiter-Glo, 40 h; series mostly up to 68.4 µM; also: nearly all actives have a fitted effect of over 55% in size
Results filed as inconclusive are left out. Activity calls are given as the source filed them. Calls follow the shape of the dose curve; as a rule, active = well fitted cell-killing curve with a large enough effect in the repeat runs; inconclusive = weak or mixed curves, or effect the other way; inactive = no such curve, though single readings can be large or run the other way.
Outcomes you can answer with include only these: active, inactive

Sample answers from the record:
1. c1ccc2sc(SN3CCOCC3)nc2c1
inactive
2. CC1=CCC(O)(C(C)C)CC1 (stereo unspecified)
inactive
3. CCOC(=O)COc1cc(-n2ncc(C(F)(F)F)c(C)c2=O)c(F)cc1Cl
inactive
4. CC(C)[C@H]1CC[C@@H](C)CC1=O
inactive
5. O=S(=O)(O)c1cccc2ccccc12
inactive

stdin: In this assay, the call recorded for Cc1ccc(C(=O)Nc2ccc(S(=O)(=O)O)c3cc(S(=O)(=O)O)cc(S(=O)(=O)O)c23)cc1NC(=O)c1cccc(NC(=O)Nc2cccc(C(=O)Nc3cc(C(=O)Nc4ccc(S(=O)(=O)O)c5cc(S(=O)(=O)O)cc(S(=O)(=O)O)c45)ccc3C)c2)c1 was what?
stdout: inactive

stdin: In this assay, the call recorded for CCCn1cc[n+](C)c1C was what?
stdout: inactive

stdin: In this assay, the call recorded for CCN1CCOCC1 was what?
stdout: inactive

stdin: In this assay, the call recorded for CC(C)CC(C)(N)C#N (stereo unspecified) was what?
stdout: inactive

stdin: In this assay, the call recorded for Clc1cc(Cl)cc(Cl)c1 was what?
stdout: inactive

stdin: In this assay, the call recorded for CC[N+](CC)(CC)CCOc1cccc(OCC[N+](CC)(CC)CC)c1OCC[N+](CC)(CC)CC was what?
stdout: inactive

stdin: In this assay, the call recorded for CC(=O)NC(=O)c1ccccc1O was what?
stdout: inactive

stdin: In this assay, the call recorded for CCOC(=O)OC(C)OC1=C(C(=O)Nc2ccccn2)N(C)S(=O)(=O)c2ccccc21 (stereo unspecified) was what?
stdout: active

stdin: In this assay, the call recorded for CO[C@@]1(NC(=O)CSC[C@@H](N)C(=O)O)C(=O)N2C(C(=O)O)=C(CSc3nnnn3C)CS[C@@H]21 was what?
stdout: inactive

stdin: In this assay, the call recorded for O=C(O)CC(C(=O)O)S(=O)(=O)O (stereo unspecified) was what?
stdout: active

stdin: In this assay, the call recorded for CC(C)C1CCC(O)CC1 (stereo unspecified) was what?
stdout: inactive

stdin: In this assay, the call recorded for CC1=NN(c2cc(S(=O)(=O)O)ccc2Cl)C(=O)C1N=Nc1ccccc1 (stereo unspecified) was what?
stdout: inactive

stdin: In this assay, the call recorded for CCCCCCCCCCOc1cc2c(=O)c(C(=O)OCC)c[nH]c2cc1OCC was what?
stdout: inactive

stdin: In this assay, the call recorded for Cc1ccc(-c2ncc(Cl)cc2-c2ccc(S(C)(=O)=O)cc2)cn1 was what?
stdout: inactive

stdin: In this assay, the call recorded for OCCc1ccccn1 was what?
stdout: inactive

stdin: In this assay, the call recorded for CC(CO)(CO)[N+](=O)[O-] was what?
stdout: inactive

---

test: qHTS assay for identifying genotoxic compounds that show differential cytotoxicity against isogenic chicken DT40 cell lines with known DNA damage response pathways - wild type cell line (AID 743012); settings: DT40 wild type chicken cells viability, CellTiter-Glo, 40 h; series mostly up to 68.4 µM; also: nearly all actives have a fitted effect of over 60% in size
Inconclusive results are not listed. The source made the active and inactive calls. Calls follow the shape of the dose curve; as a rule, active = well fitted cell-killing curve with a large enough effect in the repeat runs; inconclusive = weak or mixed curves, or effect the other way; inactive = no such curve, though single readings can be large or run the other way.
Outcomes you can answer with include only these: 1 (yes) (active), 0 (no) (inactive)

Sample answers from the record:
1. COC(=O)Nc1ccc(Cl)c(Cl)c1
0 (no)
2. CCN(Cc1ccccc1)c1ccccc1
0 (no)
3. Nc1c2c(nc3c1CCC3)CCCC2
0 (no)
4. CCN(C=O)CC
0 (no)
5. O=C(O)CC(C(=O)O)S(=O)(=O)O (stereo unspecified)
1 (yes)

Turning now to a further compound:
stdin: In this assay, the call recorded for CC(C)CCCO was what?
stdout: 0 (no)
